Reported values of inhibition at 110 µM for individual entries
Tested on: C. elegans
EXPERIMENT SUMMARY: microbe, parasite or virus in culture
EXPERIMENTAL CONDITIONS: Caenorhabditis elegans, 0 h, read-out: Percentage of motility inhibition 0 h, Table S2, C. elegans SS assay, 110 μM, 0 h, averages of 4 data points
Field: numeric (%). Do not append units.

Cc1c(C(N)=O)cc([N+](=O)[O-])cc1[N+](=O)[O-] [Dinitolmide] | 16
CN(CC(=O)O)C(=N)N [Creatine] | 4
O=c1cc(-c2ccc(O)c(-c3c(O)cc(O)c4c(=O)cc(-c5ccc(O)cc5)oc34)c2)oc2cc(O)cc(O)c12 [Amentoflavone] | 0
COC(=O)c1ccccc1O [Methyl Salicylate] | 21
NNC(=O)c1ccncc1 [Isoniazid] | 26

Find the measured inhibition at 110 µM of CC(C)N1CCN(c2ccc(OCC3COC(Cn4cncn4)(c4ccc(Cl)cc4Cl)O3)cc2)CC1 (centres unmarked) [Terconazole] and report it.
26

Find the measured inhibition at 110 µM of Nc1ccc(S(=O)(=O)Nc2ccc(Cl)nn2)cc1 [Sulfachloropyridazine] and report it.
14

Find the measured inhibition at 110 µM of CO[C@H]1/C=C/O[C@@]2(C)Oc3c(C)c(O)c4c(O)c(c(/C=N/N5CCN(C6CCCC6)CC5)c(O)c4c3C2=O)NC(=O)/C(C)=C\C=C\[C@H](C)[C@H](O)[C@@H](C)[C@@H](O)[C@@H](C)[C@H](OC(C)=O)[C@@H]1C [Rifapen tine] and report it.
9

Find the measured inhibition at 110 µM of C=CC(=C)CCC=C(C)C [Myrcene] and report it.
8

Find the measured inhibition at 110 µM of COC1=CC(=O)C[C@@H](C)[C@]12Oc1c(Cl)c(OC)cc(OC)c1C2=O [Griseofulvin] and report it.
3

Find the measured inhibition at 110 µM of Cc1nnc(NS(=O)(=O)c2ccc(N)cc2)s1 [Sulfamethizole] and report it.
4

Find the measured inhibition at 110 µM of CC(C)CN(C[C@@H](O)[C@H](Cc1ccccc1)NC(=O)O[C@H]1CCOC1)S(=O)(=O)c1ccc(N)cc1 [Amprenavir] and report it.
41

Find the measured inhibition at 110 µM of COc1c2ccoc2nc2c(O)cccc12 [Robustine] and report it.
16

Find the measured inhibition at 110 µM of O=C(O)CCC(=O)Nc1ccc(S(=O)(=O)Nc2nccs2)cc1 [Succinylsulfathiazole] and report it.
31

Find the measured inhibition at 110 µM of OCc1ccccc1 [Benzyl alcohol] and report it.
2

---

System: C. elegans
EXPERIMENTAL CONDITIONS: Table S2, C. elegans SS assay, 110 μM, 0 h, averages of 4 data points
Reported values of Percentage of motility inhibition 0 h for individual entries
Field: numeric (%). Do not append units.

See these solved cases before continuing.
C=C1[C@@H]2CC[C@H]3[C@]4(C)C[C@H](O[C@@H]5O[C@H](CO)[C@@H](OS(=O)(=O)O)[C@H](OS(=O)(=O)O)[C@H]5OC(=O)CC(C)C)CC(C(=O)[O-])(C(=O)[O-])[C@H]4CC[C@]3(C2)[C@H]1O.[K+].[K+] [Carboxyatractyloside (dipotassium)] | 15
CCC(C)(C)c1ccc(CC(C)CN2C[C@@H](C)O[C@@H](C)C2)cc1.Cl (stereo partly drawn) [Amorolfine (hydrochloride)] | 20

Could you now consider this next compound?
Find the measured Percentage of motility inhibition 0 h of CC1CCC(C(C)C)C(O)C1 (stereo not drawn) [Menthol] and report it.
3
